test system: SN12C renal; test: NCI tumour cell line growth inhibition, 48 h
ASSAY METRIC: TGI (µM)
Answers are plain numbers, in µM.

smi=O=C1c2cccnc2-c2nccc3c2c1nc1ccc(Br)cc13 units_text=µM result_number=0.205

Please look at the following compound next.
Consider the compound `O=C(NNS(=O)(=O)c1ccccc1)c1csc(NC(=S)NC2CCCCC2)n1` and give its recorded TGI.
39.3

###

tested on: LOX IMVI melanoma; experiment: NCI tumour cell line growth inhibition, 48 h
Where TGI equals or exceeds 20 µM, the correct label is Fulfilled; where it does not, the label is Not fulfilled.

Field: example entries. Status: answers known.
compound=Cc1c2cccc-2c(OCCOC(=O)n2ccnc2)cc2c1[nH]c1ccccc12 group="Not fulfilled"
compound="CN(C)CC1CCCCCC(Br)C1=O (stereo unspecified)" group=Fulfilled
compound=COc1cc(OC)c(F)c(COc2cnc(Nc3cnn(CCO)c3)nc2)c1F group=Fulfilled

Form field: TGI at least 20 µM? Entry: CN(C)CC1CCCc2ccccc2C1=O (stereo unspecified)
Not fulfilled

In plain terms: is recorded TGI at least 20 µM for `O=C(Oc1ccc2c(-c3ccccc3)c(C(=O)Nc3ccc(Cl)cc3)c(=O)oc2c1)c1ccccc1` ?
Fulfilled

Does the compound CCC(C)c1cccc(C)c1NC(=O)C(=O)Cc1nc2ccccc2s1 (stereo unspecified) have recorded TGI that is 20 µM or more?
Fulfilled

###

test system: SF-539 CNS; assay: NCI tumour cell line growth inhibition, 48 h; in the data active = GI50 below about 0.43 µM; inactive = the rest
Returns: one label drawn from true (1) = active, false (0) = inactive

Consider the worked cases shown below.
compound=Oc1ccc(Oc2cnc3cc(Cl)ccc3n2)cc1 group="false (0)"
compound=Fc1cccc(Cl)c1Cn1c(-c2c(F)cccc2Cl)nc2ccccc21 group="false (0)"
compound=COc1ccc(/C=C\c2cc(OC)c(OC)c(OC)c2)cc1OCC(=O)Nc1nc2ccccc2s1 group="true (1)"
compound=NC(=O)c1sc(-n2cnc3ccc(C(F)(F)F)cc32)cc1OCc1ccccc1Br group="false (0)"

Please state the recorded outcome for this compound: `COc1ccc(-n2cc(-c3cc(OC)c(OC)c(OC)c3)[nH]c2=S)cc1Cl`
false (0)

Query: recorded result category for O=C1CC(c2ccsc2)c2snc(-c3ccc(Cl)cc3)c2N1 (configuration not stated) in this test
false (0)

Recorded test outcome, item `O=C(Oc1ccccc1Cl)c1ccccc1Nc1cccc(C(F)(F)F)c1`
false (0)

GET /call?item= `O=C1/C(=C/c2ccc(Cl)cc2)CN(C(=O)CCN2CCC(=NO)CC2)C/C1=C\c1ccc(Cl)cc1` returns the recorded outcome of this test.
false (0)

Dear colleague, could you share the recorded outcome for `COc1ccc(-c2nc(-c3ccccn3)c(-c3ccccn3)n2CC(C)C)cc1OC1CCCC1` when you have a moment?
false (0)

###

test system: OVCAR-4 ovarian; assay: NCI tumour cell line growth inhibition, 48 h; in the data active = GI50 below about 0.43 µM; inactive = the rest
Could you please pick one outcome from this set? 1 (yes) = active, 0 (no) = inactive

Check out these entries, answers already filled in.
smi=CCSc1ccc([C@@H]2[C@@H](N)C(=O)N2c2cc(OC)c(OC)c(OC)c2)cc1 group="0 (no)"
smi=NC(=O)c1sc(-n2cnc3ccc(C(F)(F)F)cc32)cc1OCc1ccccc1Br group="0 (no)"

Dear all, I need the recorded test outcome for `CCOC(=O)c1ccc(N(C=O)CCC(=O)CCl)cc1` , thank you.
1 (yes)

Fill in: this test's call for `CC[C@H](C)[C@H](NC(=O)NC(C)(C)C)C(=O)N(C)[C@H](C[C@@H](OC(C)=O)c1nc(C(=O)N[C@@H](Cc2ccccc2)C[C@H](C)C(=O)OC)cs1)C(C)C` is ___
0 (no)

###

tested on: HS 578T breast; test: NCI tumour cell line growth inhibition, 48 h
ASSAY METRIC: TGI (µM)
Answers are plain numbers, in µM.

compound=C=C(C)[C@@H]1CC[C@]2(C(=O)O)CC[C@]3(C)[C@H](CC[C@@H]4[C@@]5(C)C/C(=C/c6cccc(I)c6)C(=O)C(C)(C)[C@@H]5CC[C@]43C)[C@@H]12 test_system="HS 578T breast" units_text=µM result_number=8.75
compound=CN(C)c1ccc2cc3ccc(N(C)C)cc3nc2c1 test_system="HS 578T breast" units_text=µM result_number=10.7

Hi team, please reply with TGI for each item in this list.
1. CCCCCCCCNC(C)C(O)c1ccc(SC(C)C)cc1 (stereo not given)
2. COc1ccc(-c2nc(-c3ccccn3)c(-c3ccccn3)n2CC(C)C)cc1OC1CCCC1
3. CCCCCCCCCCCCCCCC(=O)OCC1OC(OC)C(NC(=O)N(CCCl)N=O)C(O)C1O (stereo not given)

1. 4.61
2. 79.4
3. 63.9

###

tested on: A549 NSCLC; experiment: NCI tumour cell line growth inhibition, 48 h
Exercise: state measured GI50 for each of the compounds provided.

For orientation, consider the following solved cases.
smi=O=C(Nc1ccc(Oc2ccc(NC(=O)Nc3ccc([N+](=O)[O-])cc3)cc2)cc1)Nc1ccc([N+](=O)[O-])cc1 assay_metric=GI50 result="2.61 µM"
smi=Nc1nc(-c2ccc(Cl)cc2)cc(-c2ccc(Cl)cc2)c1-c1nc2ccccc2o1 assay_metric=GI50 result="15.5 µM"
smi=O=C(Cn1c(C(=O)c2ccc(Cl)cc2)nc(-c2ccccc2)c1-c1ccccc1)c1ccc(Cl)cc1 assay_metric=GI50 result="> 100 µM"
smi=O=C(Cc1ccc(Nc2ccnc(C(F)(F)F)c2)cc1)Nc1cc(Cl)ccc1O assay_metric=GI50 result="15.3 µM"
smi=OCCn1cc(-c2cnc3nnn(Cc4ccc5ncccc5c4)c3n2)cn1 assay_metric=GI50 result="> 100 µM"

For every record below, what is its GI50?
1. O=C1NC(=O)[C@@H](c2c[nH]c3ccccc23)[C@@H]1c1c[nH]c2ccccc12
2. CCOC(=O)Cn1c(-c2nonc2NC(=O)c2ccccc2F)nc2ccccc21
3. O=C(O)c1cn(C2CC2)c2cc(N3CCNCC3)c(F)cc2c1=O

1: > 25 µM; 2: 0.768 µM; 3: > 100 µM

Determine from records and report GI50 for `CNC(=O)c1cc(Oc2ccc3nc(N[C@@H]4CCCC[C@H]4O)sc3c2)ccn1`
62.5 µM

###

system: HL-60(TB) leukemia; experiment: NCI tumour cell line growth inhibition, 48 h
Assign TGI to each entry below.
Answers are plain numbers, in µM.

smi=C=C(C)[C@@H]1CC[C@]2(C(=O)O)CC[C@]3(C)[C@H](CC[C@@H]4[C@@]5(C)C/C(=C/c6cccc(I)c6)C(=O)C(C)(C)[C@@H]5CC[C@]43C)[C@@H]12 result_number=8.58
smi=O=P(O)(O)CN1CCNCCN(CP(=O)(O)O)CCN(CP(=O)(O)O)CCNCC1 result_number=55.8
smi=O=C1/C(=C/c2ccc(Cl)cc2)CN(C(=O)CCN2CCC(=NO)CC2)C/C1=C\c1ccc(Cl)cc1 result_number=4.9
smi=Fc1ccc([C@@H]2CCNC[C@H]2COc2ccc3c(c2)OCO3)cc1 result_number=19.9

Dear reader, for each entry below, please note its TGI.
1. O=C(/C=C/c1ccccc1)Oc1cccc(Br)c1
2. CN1CCN(c2ccc3nc(-c4[nH]ncc4Nc4ncnc5c4OCCCN5)[nH]c3c2)CC1

52.1
0.0298

Quickly give me recorded TGI for `O=C1CCSC(=S)N1c1ccc(Br)c(Cl)c1`
75.9

###

tested on: PC-3 prostate; assay: NCI tumour cell line growth inhibition, 48 h; in the data active means GI50 below about 0.43 µM; inactive means the rest
Field 'call' accepts true (1) = active, false (0) = inactive

// known answers, use as guide
molecule=OCCn1cc(-c2cnc3nnn(Cc4ccc5ncccc5c4)c3n2)cn1 test_system="PC-3 prostate" group="false (0)"
molecule="CC(C)=CC(=O)N[C@@H]1CC2CCC3C(CC[C@@]4(C)C3CC[C@@H]4C(C)N(C)C)[C@@]2(C)C[C@@H]1O (stereo not given in full)" test_system="PC-3 prostate" group="false (0)"
molecule=O=c1c2c(=NCCN3CCCC3)cc3c(=O)n(CCCN4CCOCC4)c(=O)c4ccc(c(O)n1CCCN1CCOCC1)c2c4-3 test_system="PC-3 prostate" group="true (1)"
molecule=Fc1ccc([C@@H]2CCNC[C@H]2COc2ccc3c(c2)OCO3)cc1 test_system="PC-3 prostate" group="false (0)"
molecule=COc1cc(/C(=C2/O[C@@H]([C@H]3COC(C)(C)O3)[C@H]3OC(C)(C)O[C@@H]23)c2ccc3c(c2)OCO3)cc(OC)c1OC test_system="PC-3 prostate" group="false (0)"
molecule=Oc1ccc(Oc2cnc3cc(Cl)ccc3n2)cc1 test_system="PC-3 prostate" group="false (0)"

What call does the record list for `CC(C)C[CH2][Ge]([CH2]CC(C)C)([CH2]CC(C)C)[CH2]CC(C)C` ?
false (0)

###

tested on: SF-268 CNS; test: NCI tumour cell line growth inhibition, 48 h; in the data active = GI50 below about 0.43 µM; inactive = the rest
Parameter call: string, one of Yes (active), No (inactive)

molecule=Cc1cc(NCc2cc(Nc3ccnc4cc(Cl)ccc34)ccc2F)nc(N2CCSCC2)n1 group=No
molecule=Nc1nc(-c2ccc(Cl)cc2)cc(-c2ccc(Cl)cc2)c1-c1nc2ccccc2o1 group=No
molecule=CC(=O)Nc1ccc(-c2csc(Nc3cccc(-c4csc(-c5ccccc5)n4)c3)n2)cc1 group=No
molecule=COc1ccc(-c2nc(-c3ccccn3)c(-c3ccccn3)n2CC(C)C)cc1OC1CCCC1 group=No
molecule=O=C(Nc1ccc(Oc2ccc(NC(=O)Nc3ccc([N+](=O)[O-])cc3)cc2)cc1)Nc1ccc([N+](=O)[O-])cc1 group=No
molecule=CC(C)C[CH2][Ge]([CH2]CC(C)C)([CH2]CC(C)C)[CH2]CC(C)C group=No
molecule=COc1ccc2c(c1)[nH]c(=O)c1c3cc(OC)c(OC)cc3cn21 group=Yes
molecule=O=C(CCN1CCCC1)Nc1ccc2c(NCCc3ccccc3)c3ccccc3nc2c1 group=No
molecule=C[C@@H](Oc1cc(-n2cnc3ccc(OCC4CCN(C)CC4)cc32)sc1C(N)=O)c1ccccc1Cl group=Yes
molecule=O=C(c1nn(-c2ccc(Cl)cc2)cc1O)n1nc(C(F)(F)F)cc1-c1ccccc1 group=No

Can you look up the reported call for `O=C(c1ccco1)c1nc2cc(C(F)(F)F)ccc2[n+]([O-])c1C(F)(F)F` for me?
No

# lookup: test call for `O=C(Cn1c(C(=O)c2ccc(Cl)cc2)nc(-c2ccccc2)c1-c1ccccc1)c1ccc(Cl)cc1`
No

Outcome logged for `NC(=O)c1sc(-n2cnc3ccc(C(F)(F)F)cc32)cc1OCc1ccccc1Br` in this assay:
No
